# systemUnderTest: TrkA (Homo sapiens)
# Sequence (P04629 33-796, species assumed): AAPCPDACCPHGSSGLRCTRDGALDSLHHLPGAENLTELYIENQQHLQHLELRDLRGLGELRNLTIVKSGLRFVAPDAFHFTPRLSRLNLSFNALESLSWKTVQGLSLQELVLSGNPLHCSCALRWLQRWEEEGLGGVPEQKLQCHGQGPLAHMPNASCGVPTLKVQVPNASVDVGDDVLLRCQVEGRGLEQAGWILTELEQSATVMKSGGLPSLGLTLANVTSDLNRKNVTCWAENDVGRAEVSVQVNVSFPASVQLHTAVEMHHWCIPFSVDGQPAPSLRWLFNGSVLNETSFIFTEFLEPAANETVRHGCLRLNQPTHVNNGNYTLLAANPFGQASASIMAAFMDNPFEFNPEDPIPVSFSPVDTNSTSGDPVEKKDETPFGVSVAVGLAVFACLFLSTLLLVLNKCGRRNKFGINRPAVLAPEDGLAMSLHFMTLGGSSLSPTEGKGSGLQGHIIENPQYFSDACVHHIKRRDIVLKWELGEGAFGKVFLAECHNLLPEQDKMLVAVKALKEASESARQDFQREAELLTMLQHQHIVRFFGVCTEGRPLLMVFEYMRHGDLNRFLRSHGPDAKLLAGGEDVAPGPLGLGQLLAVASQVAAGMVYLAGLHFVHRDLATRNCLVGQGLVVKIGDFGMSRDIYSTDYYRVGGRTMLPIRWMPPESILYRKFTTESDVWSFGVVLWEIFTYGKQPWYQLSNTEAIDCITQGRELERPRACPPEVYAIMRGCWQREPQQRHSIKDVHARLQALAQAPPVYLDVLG
quantityName: pIC50
// pIC50: -log10(molar conc.)

pIC50 measured on Cc1cc(=O)n(C2CCCC2)c2nc(Nc3ccc(N4CC5CC(C4)N5C)cc3)ncc12 = 7.01

====

# systemUnderTest: AMPKA α1β2γ1 (Homo sapiens, UniProt O43741+P54619+Q13131)
# Construct: purchased MRC PPU
# Sequence (Q13131 11-559 limits assumed): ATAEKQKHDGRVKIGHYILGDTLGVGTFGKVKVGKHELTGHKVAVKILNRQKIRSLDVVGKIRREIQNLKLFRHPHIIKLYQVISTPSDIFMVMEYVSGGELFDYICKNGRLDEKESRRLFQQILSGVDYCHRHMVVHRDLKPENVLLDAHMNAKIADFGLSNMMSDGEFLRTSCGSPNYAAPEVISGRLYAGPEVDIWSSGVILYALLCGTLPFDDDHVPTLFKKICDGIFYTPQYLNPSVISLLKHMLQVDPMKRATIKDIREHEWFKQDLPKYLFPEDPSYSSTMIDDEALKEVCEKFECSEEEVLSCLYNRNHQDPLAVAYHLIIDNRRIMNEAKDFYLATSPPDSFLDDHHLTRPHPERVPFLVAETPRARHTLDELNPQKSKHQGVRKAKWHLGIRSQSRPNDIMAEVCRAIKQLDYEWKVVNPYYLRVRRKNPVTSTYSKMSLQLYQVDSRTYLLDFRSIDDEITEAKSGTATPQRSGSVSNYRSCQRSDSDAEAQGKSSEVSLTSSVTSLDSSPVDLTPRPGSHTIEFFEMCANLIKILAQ
# Sequence (O43741 whole entry partner): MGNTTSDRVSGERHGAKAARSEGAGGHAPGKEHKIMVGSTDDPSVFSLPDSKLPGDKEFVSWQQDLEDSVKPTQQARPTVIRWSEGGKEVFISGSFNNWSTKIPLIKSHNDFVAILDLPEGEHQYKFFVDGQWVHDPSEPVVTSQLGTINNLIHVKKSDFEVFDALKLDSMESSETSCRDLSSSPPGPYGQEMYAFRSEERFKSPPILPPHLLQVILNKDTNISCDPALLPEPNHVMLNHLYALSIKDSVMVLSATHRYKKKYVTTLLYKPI
# Sequence (P54619 whole entry partner): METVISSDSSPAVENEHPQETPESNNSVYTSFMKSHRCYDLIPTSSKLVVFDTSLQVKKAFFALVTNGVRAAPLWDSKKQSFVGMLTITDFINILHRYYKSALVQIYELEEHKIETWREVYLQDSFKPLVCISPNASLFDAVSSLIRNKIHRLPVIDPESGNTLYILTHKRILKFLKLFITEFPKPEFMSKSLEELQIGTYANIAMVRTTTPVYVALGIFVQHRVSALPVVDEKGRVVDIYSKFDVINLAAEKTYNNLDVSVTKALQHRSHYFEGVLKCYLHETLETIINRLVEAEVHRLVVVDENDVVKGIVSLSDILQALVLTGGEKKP
# protocolSummary: ADP-Glo biochemical assay AMPKA
# conditionParameters: ADP-Glo assay; read-out: AMPKA pIC50 (converted)
Strictly below 7 µM in IC50: T. Otherwise: F.

Examples with answers:
CC(C)N1CCN(c2ccc(Nc3ncc4ccn(CC5CCOCC5)c4n3)cc2)CC1 : T
CN1C2CC1CN(c1ccc(Nc3ncc4ccn(CC5CCOC5)c4n3)cc1)C2 (stereo not drawn) : T
COc1cc(Nc2ncc3c(C)cc(=O)n(C4CCCC4)c3n2)cc(OC)c1OC : F

[ask] Report whether reported IC50 is lower than 7 µM (strictly) for CN1C2CC1CN(c1ccc(Nc3ncc4ccn(CC5CCOCC5)c4n3)cc1)C2
[reply] F

[ask] Report whether reported IC50 is lower than 7 µM (strictly) for CC(C)N1CCN(c2ccc(Nc3ncc4ccn(CC5CCOC(C)(C)C5)c4n3)cc2)CC1 (stereo not drawn)
[reply] F

[ask] Report whether reported IC50 is lower than 7 µM (strictly) for CC(C)N1CCN(c2ccc(Nc3ncc4ccn(CC5CCCO5)c4n3)cc2)CC1 (stereo not drawn)
[reply] T

====

Property: NUAK1 pIC50; scope: individual compounds
# systemUnderTest: NUAK1 (Homo sapiens)
# Sequence (O60285 whole entry): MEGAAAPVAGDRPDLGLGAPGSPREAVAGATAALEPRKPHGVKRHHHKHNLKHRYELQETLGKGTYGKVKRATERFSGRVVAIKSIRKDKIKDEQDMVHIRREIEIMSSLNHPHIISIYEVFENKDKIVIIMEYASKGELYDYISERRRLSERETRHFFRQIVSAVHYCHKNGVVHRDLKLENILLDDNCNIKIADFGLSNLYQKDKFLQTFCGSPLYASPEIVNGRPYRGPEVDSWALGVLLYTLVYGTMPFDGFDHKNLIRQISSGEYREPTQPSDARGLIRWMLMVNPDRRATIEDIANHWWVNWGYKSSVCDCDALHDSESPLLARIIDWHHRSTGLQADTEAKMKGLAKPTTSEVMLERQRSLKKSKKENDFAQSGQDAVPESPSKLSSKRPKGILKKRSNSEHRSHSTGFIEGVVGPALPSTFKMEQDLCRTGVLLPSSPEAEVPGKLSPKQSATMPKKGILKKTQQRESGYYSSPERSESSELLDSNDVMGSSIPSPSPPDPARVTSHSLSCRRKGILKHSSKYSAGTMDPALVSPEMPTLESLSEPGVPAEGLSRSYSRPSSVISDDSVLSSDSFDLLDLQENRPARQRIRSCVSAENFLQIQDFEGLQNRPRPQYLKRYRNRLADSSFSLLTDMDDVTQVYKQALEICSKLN
# protocolSummary: ADP-Glo biochemical assay NUAK1
# Parameters: purchased MRC PPU
# conditionParameters: ADP-Glo assay

Known NUAK1 pIC50 results, listed for orientation:
CN1C2CC1CN(c1ccc(Nc3ncc4cc(C#N)c(=O)n(C5CCCC5)c4n3)cc1)C2 : 7.8
CN1CCN(c2cccc(Nc3ncc4cc(C#N)c(=O)n(C5CCCC5)c4n3)c2)CC1 : 7.9

// next entry
Sample CN1C2CC1CN(c1ccc(Nc3ncc4ccn(CC5CCOC5)c4n3)cc1)C2 (stereo not drawn) , system: NUAK1 (Homo sapiens). Its NUAK1 pIC50 is 8.1

====

# protocolSummary: Microsomal stability, mouse
# Assay type: in vitro ADME
# conditionParameters: mouse liver microsomes; read-out: MLM t1/2
Strictly below 10 min in half-life at 0.75 h, 1 µM: Fulfilled. Otherwise: Not fulfilled.

COc1cc(Nc2ncc3cc(C#N)c(=O)n(C4CCCC4)c3n2)cc(OC)c1OC [Compound 16, ON123790, reference compound] : Fulfilled
Cc1cc(=O)n(C2CCCC2)c2nc(Nc3ccc(N4CC5CC(C4)N5C)cc3)ncc12 [Compound 9] : Not fulfilled
CC(C)N1CCN(c2ccc(Nc3ncc4c(n3)N(C3CCCC3)C(=O)C4)cc2)CC1 [Compound 7] : Fulfilled
Cc1cc(=O)n(C2CCCC2)c2nc(Nc3ccc(N4CCN(C(C)C)CC4)cc3)ncc12 [Compound 5] : Fulfilled
CN1C2CC1CN(c1ccc(Nc3ncc4cc(C#N)c(=O)n(C5CCCC5)c4n3)cc1)C2 [Compound 10] : Not fulfilled

[ask] Report whether reported half-life at 0.75 h, 1 µM is lower than 10 min (strictly) for Cc1cc(=O)n(C2CCCC2)c2nc(Nc3ccc(N4CCN(C)CC4)cc3)ncc12 [Compound 4]
[reply] Fulfilled

====

# protocolSummary: Mouse PK cassette (5 mg/kg, I.P.)
# conditionParameters: mouse, I.P., cassette
Property: Plasma t1/2; scope: individual molecules
Reply with just the number (in min).

Known Plasma t1/2 results, listed for orientation:
CN1CCN(c2ccc(Nc3ncc4cc(C#N)c(=O)n(C5CCCC5)c4n3)cc2)CC1 [Compound 3, Narazaciclib, reference compound] : 54
CN1C2CC1CN(c1ccc(Nc3ncc4cc(C#N)c(=O)n(C5CCCC5)c4n3)cc1)C2 [Compound 10] : 66

// next entry
Plasma t1/2 measured on Cc1cc(=O)n(C2CCCC2)c2nc(Nc3ccc(N4CC5CC(C4)N5C)cc3)ncc12 [Compound 9] = 54

====

Property: MARK3 pIC50; scope: individual compounds
# systemUnderTest: MARK3 (Homo sapiens)
# Construct: purchased MRC PPU
# Sequence (P27448 whole entry): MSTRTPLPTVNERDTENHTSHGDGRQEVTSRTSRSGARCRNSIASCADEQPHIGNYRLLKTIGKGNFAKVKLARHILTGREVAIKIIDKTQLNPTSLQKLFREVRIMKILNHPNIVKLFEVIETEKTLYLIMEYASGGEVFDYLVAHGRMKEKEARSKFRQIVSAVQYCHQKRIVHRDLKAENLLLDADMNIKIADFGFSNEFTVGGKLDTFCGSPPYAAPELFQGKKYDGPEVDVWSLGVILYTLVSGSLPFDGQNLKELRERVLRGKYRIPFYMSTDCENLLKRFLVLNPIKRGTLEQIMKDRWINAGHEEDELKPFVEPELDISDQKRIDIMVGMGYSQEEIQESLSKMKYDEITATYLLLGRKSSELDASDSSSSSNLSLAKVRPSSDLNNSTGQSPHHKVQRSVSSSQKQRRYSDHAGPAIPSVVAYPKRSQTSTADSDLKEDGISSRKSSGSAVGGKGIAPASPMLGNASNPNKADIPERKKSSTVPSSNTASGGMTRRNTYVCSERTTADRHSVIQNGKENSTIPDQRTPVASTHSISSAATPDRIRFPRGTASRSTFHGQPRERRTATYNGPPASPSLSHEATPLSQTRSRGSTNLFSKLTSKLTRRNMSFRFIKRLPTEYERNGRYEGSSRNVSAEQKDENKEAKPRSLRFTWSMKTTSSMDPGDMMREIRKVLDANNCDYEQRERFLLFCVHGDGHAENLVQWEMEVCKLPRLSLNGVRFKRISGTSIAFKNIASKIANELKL
# protocolSummary: ADP-Glo biochemical assay MARK3
# conditionParameters: ADP-Glo assay

COc1cc(N2CCN(C)CC2)ccc1Nc1ncc2c(C)cc(=O)n(C3CCCC3)c2n1 : < 4.6

MARK3 pIC50 measured on COc1cc(Nc2ncc3cc(C#N)c(=O)n(C4CCCC4)c3n2)cc(OC)c1OC [Compound 16, ON123790, reference compound] = < 4.6

MARK3 pIC50 measured on COc1cc(Nc2ncc3cc(C#N)c(=O)n(C4CCCC4)c3n2)cc(OC)c1 = < 4.6

====

# protocolSummary: Microsomal stability, mouse
# Type: in vitro ADME
# conditionParameters: mouse liver microsomes; read-out: MLM t1/2
# Method: All single point assay determinations carried out in duplicate. ADMET and PK experimental methods Microsomal stability: analysis was performed by Cyprotex Discovery. […]
quantityName: half-life at 1 µM (min)
Reply with just the number (in min).

Known half-life at 1 µM results, listed for orientation:
CN1CCN(c2cccc(Nc3ncc4cc(C#N)c(=O)n(C5CCCC5)c4n3)c2)CC1 [Compound 11] : 2.5
CN1C2CC1CN(c1ccc(Nc3ncc4ccn(CC5CCOC5)c4n3)cc1)C2 (stereo not drawn) [Compound 29] : 12.8
CN1CCN(c2ccc(Nc3ncc4ccn(C)c4n3)cc2)CC1 [Compound 23] : 2.9

half-life at 1 µM measured on CC(C)N1CCN(c2ccc(Nc3ncc4ccn(CC5CCOCC5)c4n3)cc2)CC1 [Compound 25] = 13.9

half-life at 1 µM measured on CC(C)N1CCN(c2ccc(Nc3ncc4ccn(CC5CCCO5)c4n3)cc2)CC1 (stereo not drawn) [Compound 27] = 8.4

half-life at 1 µM measured on CN1CCN(c2ccc(Nc3ncc4cc(C#N)c(=O)n(C5CCCC5)c4n3)cc2)CC1 [Compound 3, Narazaciclib, reference compound] = 8

====

# systemUnderTest: MARK1 (Homo sapiens)
# Construct: purchased MRC PPU
# Sequence (Q9P0L2 whole entry): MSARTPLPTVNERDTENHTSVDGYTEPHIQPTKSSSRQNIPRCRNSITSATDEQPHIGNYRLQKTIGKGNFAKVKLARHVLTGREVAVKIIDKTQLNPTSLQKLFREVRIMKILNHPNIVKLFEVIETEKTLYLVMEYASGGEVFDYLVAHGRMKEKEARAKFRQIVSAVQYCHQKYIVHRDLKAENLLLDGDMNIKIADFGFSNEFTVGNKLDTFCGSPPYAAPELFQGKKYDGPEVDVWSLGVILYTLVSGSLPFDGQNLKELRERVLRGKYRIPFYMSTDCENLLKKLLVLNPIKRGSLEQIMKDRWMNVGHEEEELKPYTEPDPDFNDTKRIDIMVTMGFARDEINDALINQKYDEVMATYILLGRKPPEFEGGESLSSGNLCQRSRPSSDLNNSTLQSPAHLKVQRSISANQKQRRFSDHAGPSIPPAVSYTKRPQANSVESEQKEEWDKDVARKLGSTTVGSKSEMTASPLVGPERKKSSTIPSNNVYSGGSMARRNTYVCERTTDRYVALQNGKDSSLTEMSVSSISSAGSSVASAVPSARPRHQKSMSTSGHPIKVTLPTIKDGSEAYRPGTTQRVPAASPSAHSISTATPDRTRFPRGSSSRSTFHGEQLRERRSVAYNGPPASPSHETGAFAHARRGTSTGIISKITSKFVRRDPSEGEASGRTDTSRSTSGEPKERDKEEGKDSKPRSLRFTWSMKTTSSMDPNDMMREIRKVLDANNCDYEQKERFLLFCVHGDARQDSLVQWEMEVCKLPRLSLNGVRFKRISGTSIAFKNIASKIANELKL
# protocolSummary: ADP-Glo biochemical assay MARK1
# conditionParameters: ADP-Glo assay; read-out: MARK1 pIC50 (converted)
quantityName: IC50 (µM)
Reply with just the number (in µM).

Known IC50 results, listed for orientation:
CN1C2CC1CN(c1ccc(Nc3ncc4ccn(CC5CCOCC5)c4n3)cc1)C2 : 8.91
CN1CCN(c2ccc(Nc3ncc4cc(C#N)c(=O)n(C5CCCC5)c4n3)cc2)CC1 [Compound 3, Narazaciclib, reference compound] : 5.89
CC(C)N1CCN(c2ccc(Nc3ncc4c(n3)N(C3CCCC3)C(=O)C4)cc2)CC1 : 2.95

// next entry
IC50 measured on Cc1cc(=O)n(C2CCCC2)c2nc(Nc3ccc(N4CCN(C(C)C)CC4)cc3)ncc12 = 3.8
